# System: DU-145
# protocol.notes: NCI tumour cell line growth inhibition, 48 h
Activity calls are given as the source filed them. Cut-off read from the data, not from the text of the source: active = GI50 up to about 1.1 µM and inactive = higher.
measured.quantity: GI50

Some solved cases for reference:
COc1cccc(C2c3cc4c(cc3OC(Nc3ccccc3)C2C)OCO4)c1OC (stereo not given)    7.08 µM (inactive)
CC(C)=CCc1c(O)cc2oc(-c3ccc(O)cc3O)cc(=O)c2c1O    29.3 µM (inactive)
CCOc1nc2sc3c(c2c(=O)n1CCSSCCn1c(OCC)nc2sc4c(c2c1=O)CCCC4)CCCC3    > 100 µM (inactive)

I have this compound here, CN(CCNC(=S)c1cn(C)c2c1ccc1ccccc12)CCNC(=S)c1cn(C)c2c1ccc1ccccc12 , and I need its recorded GI50.
48.2 µM (inactive)

I have this compound here, CCOC1SC(SC)=NN1C(=O)C(OC(C)=O)C(OC(C)=O)C(OC(C)=O)C(OC(C)=O)C(=O)N1N=C(SC)SC1OCC (stereo not given) , and I need its recorded GI50.
> 100 µM (inactive)

I have this compound here, COc1cc(-c2coc3c(OC)c(OC4OC(CO)C(O)C(O)C4O)c(OC)cc3c2=O)cc(OC)c1C (stereo not given) , and I need its recorded GI50.
8.41 µM (inactive)

I have this compound here, N#CC1(C#N)NC(c2cccnc2)C(C#N)(C#N)NC1c1cccnc1 (stereo not given) , and I need its recorded GI50.
> 100 µM (inactive)

I have this compound here, NC1=C(N2CCOCC2)C(=O)NC2=N/C(=C\c3ccccc3)C(=O)N21 , and I need its recorded GI50.
> 100 µM (inactive)

I have this compound here, O=c1[nH]nc(-c2ccccc2)n1-c1ccncc1 , and I need its recorded GI50.
> 100 µM (inactive)

I have this compound here, C=C(C)C1CC(=O)C(C)=C(O)C1 (stereo not given) , and I need its recorded GI50.
> 100 µM (inactive)

* * *

# Test system: SK-MEL-5
# protocol.notes: NCI tumour cell line growth inhibition, 48 h
The source made the active and inactive calls. No stated cut-off is given here; in the data, active = GI50 up to about 1.1 µM and inactive = higher.
measured.quantity: GI50

CN(C)Cc1cc(C(=O)/C=C/c2ccc(Cl)c(Cl)c2)cc(CN(C)C)c1O    1.6 µM (inactive)

I have this compound here, CN1C2C=CC(=O)C1C(C#N)C2 (centres undefined) , and I need its recorded GI50.
55.1 µM (inactive)

I have this compound here, COC(=O)NC(=O)c1cn(CCCOC(=O)CCCCCCCCC(=O)OCCCn2cc(C(=O)NC(=O)OC)c(=O)[nH]c2=O)c(=O)[nH]c1=O , and I need its recorded GI50.
> 100 µM (inactive)

I have this compound here, CC(C)C1COC(c2ccc3ccccc3c2-c2c(O[Si](C)(C)C(C)(C)C)ccc3ccccc23)=N1 (centres undefined) , and I need its recorded GI50.
16.7 µM (inactive)

I have this compound here, COc1cc(/C=C/C=C2\CC/C(=C\C=C\c3ccc(O)c(OC)c3)C2=O)ccc1O , and I need its recorded GI50.
> 87.9 µM (inactive)

I have this compound here, N#Cc1c(-c2ccccc2)c(/N=N/c2ccc(F)cc2)c(=O)n2c1[nH]c1ccccc12 , and I need its recorded GI50.
1.53 µM (inactive)

I have this compound here, COc1cc(C2c3cc4c(cc3OC(NNS(=O)(=O)c3ccc(C)cc3)C2C)OCO4)cc(OC)c1O (centres undefined) , and I need its recorded GI50.
9.75 µM (inactive)

I have this compound here, COc1cc(-c2[o+]c3cc(O)cc(OC4OC(CO)C(O)C(O)C4O)c3cc2OC2OC(CO)C(O)C(O)C2O)cc(OC)c1O (centres undefined) , and I need its recorded GI50.
> 100 µM (inactive)

I have this compound here, COc1cc(-c2coc3c(OC)c(OC4OC(CO)C(O)C(O)C4O)c(OC)cc3c2=O)cc(OC)c1C (centres undefined) , and I need its recorded GI50.
12.1 µM (inactive)

* * *

# Tested on: RXF 393
# protocol.notes: NCI tumour cell line growth inhibition, 48 h
Calls of active or inactive are those of the source. No stated cut-off is given here; in the data, active = GI50 up to about 1.1 µM and inactive = higher.
Response enum: active, inactive

For O=C(ON=C1c2ccccc2C(Br)C(Br)c2ccccc21)c1ccccc1 (stereo not given) , which call appears in the assay record?
inactive

For O=C(CCc1nnc2s/c(=C\c3ccccc3[N+](=O)[O-])c(=O)n12)Nc1cc(Cl)c(Cl)cc1Cl , which call appears in the assay record?
inactive

For CC(=O)/C=C/c1ccc(C2CC(C)=Nc3c(ccc4c3C(=O)c3ccccc3C4=O)N2)cc1 (stereo not given) , which call appears in the assay record?
inactive

For O=C(/C=C/c1ccc(OCCCOc2ccc(/C=C/C(=O)c3ccccc3)cc2)cc1)c1ccccc1 , which call appears in the assay record?
inactive

For O=C1NC(=O)C2C1N(Cc1ccccc1)C(=O)N2Cc1ccccc1 (stereo not given) , which call appears in the assay record?
inactive

* * *

# Test system: NCI-H460
# protocol.notes: NCI tumour cell line growth inhibition, 48 h
Calls of active or inactive are those of the source. Cut-off read from the data, not from the text of the source: active = GI50 up to about 1.1 µM and inactive = higher. Where a SMILES comes first, the peptide text is derived from it. Bridges are numbered along the chain shown (N, C = ends). [ ]: non-standard residue; d: D form. The star is where a group is joined. ξ: configuration not given here. X28 = O=C(/C=C/C=C/C=C/C=C/C=C/C(=O)*)NC1=C(O)CCC1=O; NMeA = CN[C@@H](C)C(=O)O; ξF = NC(Cc1ccccc1)C(=O)O; ξA = CC(N)C(=O)O
measured.quantity: GI50

COC(=O)C1=C2SCc3ccc(cc3)CSC3=C(C(=O)OC)SC(=C(S2)S1)S3    > 100 µM (inactive)
Cc1ncc(C/N=C/c2ccc(Cl)cc2)c(N)n1    > 100 µM (inactive)
COc1ccc(-c2onc(-c3ccc([N+](=O)[O-])cc3)c2C2=NCCN2)cc1    45.9 µM (inactive)
CC1NC(=O)[C@H](C)N(C)C(=O)[C@@H]2CCCN2C(=O)[C@@H](NC(=O)C(Cc2ccccc2)NC(=O)/C=C/C=C/C=C/C=C/C=C/C(=O)NC2=C(O)CCC2=O)COC(=O)[C@@H]2CCCN2C1=O (stereo partly drawn) (X28-[ξF]SP[NMeA][ξA]P; ester 2-C)    > 100 µM (inactive)
O=C1CC(C(O)C(O)C(O)CO)CC(=O)N1 (stereo not drawn)    > 100 µM (inactive)

I have this molecule here, Nc1nc(O)c2ncn(C3C=CC(CO)C3)c2n1 (stereo not drawn) , and I need its recorded GI50.
> 100 µM (inactive)

I have this molecule here, CC(=O)OCC12C(OC(C)=O)C(=O)C3C(OC(C)=O)C14OC3(C)COC(=O)c1cccnc1C(C)C(C)C(=O)OC(C(OC(C)=O)C2OC(C)=O)C4(C)O (stereo not drawn) , and I need its recorded GI50.
> 100 µM (inactive)

I have this molecule here, C[C@]12CC[C@H](O)CC1=CC[C@@H]1C2CC[C@]2(C)c3nn(-c4ccc(F)cc4)nc3CC12 (stereo partly drawn) , and I need its recorded GI50.
23.4 µM (inactive)

I have this molecule here, Cc1cccc2c1C/C(=C\c1cccc(C)c1C(=O)O)C2=O , and I need its recorded GI50.
> 100 µM (inactive)

I have this molecule here, c1ccc(/N=C2\SC3=NCCN3\C2=N/c2ccccc2)cc1 , and I need its recorded GI50.
20.7 µM (inactive)

I have this molecule here, O=c1[nH]nc(-c2ccccc2)n1-c1ccncc1 , and I need its recorded GI50.
> 100 µM (inactive)

I have this molecule here, CC1=Nn2c(nc3sc4c(c3c2=O)CCCC4)SC1 , and I need its recorded GI50.
48.2 µM (inactive)

I have this molecule here, C/C(CCN(C)C)=N/O , and I need its recorded GI50.
1.64 µM (inactive)

* * *

# System: Malme-3M
# protocol.notes: NCI tumour cell line growth inhibition, 48 h
The source made the active and inactive calls. No stated cut-off is given here; in the data, active = GI50 up to about 1.1 µM and inactive = higher.
measured.quantity: GI50

Some solved cases for reference:
Cc1nc2c(nc1C)-c1[nH]c3c(c1C(=O)C2=O)CCCC3=O    1.29 µM (inactive)
C=Cc1cncc(C#N)c1CCc1c(C#N)cncc1C=C    > 10 µM (inactive)
O=c1[nH]nc(-c2ccccc2)n1-c1ccncc1    > 100 µM (inactive)
C=C(C)[C@@H]1CCC2=C[C@H](C/C(C)=C\C3=CC(C)=C(O3)[C@H]1O)OC2=O    > 100 µM (inactive)
Cc1cc(O)nc(NNC(C#N)c2ccc([N+](=O)[O-])cc2)n1 (stereo not given)    70.1 µM (inactive)

I have this compound here, N#Cc1ccc(NC(=O)C(CC(=O)OCc2ccccc2)NC(=O)OCc2ccccc2)cc1 (stereo not given) , and I need its recorded GI50.
5.74 µM (inactive)

I have this compound here, C/C(=C1/N=C(c2cc([N+](=O)[O-])ccc2Cl)N(c2ccc(Br)cc2)C1=O)c1cc2ccccc2oc1=O , and I need its recorded GI50.
34.8 µM (inactive)

* * *

# Tested on: DMS-114
# protocol.notes: NCI tumour cell line growth inhibition, 48 h
Active and inactive are the calls of the source. Rule as the data show it: active = GI50 up to about 1.1 µM and inactive = higher.
measured.quantity: GI50

Some solved cases for reference:
O=C1C(Cl)N(c2ccccc2)C1c1c[nH]c2ccccc12 (stereo not drawn)    > 100 µM (inactive)
O=C(CCC(=O)C(C(=O)c1ccccc1)c1ccccc1)Nc1cccc(C(F)(F)F)c1 (stereo not drawn)    > 100 µM (inactive)
O=C(O)c1cc2sc(C(=O)O)cc2s1    > 100 µM (inactive)
CN(C)CC1CCCC(CN(C)C)C1=NOC(=O)c1ccccc1 (stereo not drawn)    > 100 µM (inactive)
NCc1ccc(O)c(O)c1O    18.8 µM (inactive)

I have this compound here, Cc1ccccc1N(CCC#N)C1=NN(C(=O)CC(=O)Nc2ccc(Cl)cc2)C(c2ccccc2)C1 (stereo not drawn) , and I need its recorded GI50.
> 100 µM (inactive)

I have this compound here, CCOC(=O)C12CCCC1(O)N(NC(=O)OC)C(C)=C2C(=O)OC (stereo not drawn) , and I need its recorded GI50.
> 100 µM (inactive)

I have this compound here, COC(=O)C1C(=O)O[C@@H](c2ccc(OC)cc2)C1C(=O)OC (stereo partly drawn) , and I need its recorded GI50.
> 100 µM (inactive)

I have this compound here, CCc1ccccc1NC(=O)C1=C(C)NC(C)=C(C(=O)Nc2ccccc2CC)C1c1ccc2c(c1)OCO2 , and I need its recorded GI50.
22.9 µM (inactive)

I have this compound here, C/C(=N\NC(=S)N1CCN(c2ccccn2)CC1)c1ccccn1 , and I need its recorded GI50.
0.0001 µM (active)

I have this compound here, CCC(C)CCOC(=O)c1ccc(/N=C\c2ccc(/C=N/c3ccc(C(=O)OCCC(C)CC)cc3)cc2)cc1 (stereo not drawn) , and I need its recorded GI50.
> 100 µM (inactive)

I have this compound here, C/C(CCN(C)C)=N/O , and I need its recorded GI50.
0.8 µM (active)

I have this compound here, Cc1cc2c(=O)c3ccc(Cl)cc3[nH]c2c(C(=O)O)c1C , and I need its recorded GI50.
> 100 µM (inactive)

I have this compound here, O=C1C=CC=CC2CC=C[C@@H](O)C12 (stereo partly drawn) , and I need its recorded GI50.
18.1 µM (inactive)

Every entry's value here was drawn from ChEMBL document CHEMBL1201862.
